Record form. Attribute: INHIBITION. Fill in for each entry.
System: Plasmodium berghei
Assay: Screen against P. berghei liver stage (PbLuc), transformed with Luciferase, at 10uM
Assay type: functional, HepG2
Details: tested at 10 uM
In all, about 69,000 compounds went through this assay and about 8,600 (12%) showed an effect of 50% or more. The sample holds strong results, similar compounds and a random draw of the others, so the mix is not that of the screen.
// return numeric value only (unit: %, not printed)

Exercise: Complete the entry with INHIBITION for CC(C)c1nc2n(n1)CC(NCc1cc3ccccc3o1)CC2 (configuration not stated)
Solution: 43.2

Exercise: Complete the entry with INHIBITION for Cc1ccc(F)c(S(=O)(=O)Nc2cn(C)cc(Br)c2=O)c1
Solution: 8.53

Exercise: Complete the entry with INHIBITION for Cc1ccc(S(=O)(=O)Nc2ccc(=O)n(C)c2)c(Br)c1
Solution: 77

Exercise: Complete the entry with INHIBITION for CCN1CCOCC12CCN(C(=O)C1CCCC1)CC2
Solution: -7.28

Exercise: Complete the entry with INHIBITION for c1cncc(OCC2CC3(CCN(CC4CC4)CC3)CO2)c1 (configuration not stated)
Solution: 13.7

Exercise: Complete the entry with INHIBITION for Cn1cc(NS(=O)(=O)c2ccc3c(c2)CCCC3)ccc1=O
Solution: 81.1

Exercise: Complete the entry with INHIBITION for COc1cccc(C2(C(=O)NC3CCc4nccn4C3)CCCC2)c1 (configuration not stated)
Solution: 34.6

Exercise: Complete the entry with INHIBITION for CC(C)c1ccc(C(=O)O)cc1S(=O)(=O)Nc1ccc(=O)n(C)c1
Solution: -3.87

Exercise: Complete the entry with INHIBITION for Cc1cc(NC2CCc3nc(C)nn3C2)n2ncnc2n1 (configuration not stated)
Solution: -12.5

Exercise: Complete the entry with INHIBITION for CC(NC(=O)CCCn1cnc2ccccc2c1=O)c1ncn[nH]1 (configuration not stated)
Solution: 11.1

Exercise: Complete the entry with INHIBITION for Cn1cc(NS(=O)(=O)c2ccc(F)c(F)c2)ccc1=O
Solution: 23.5

Exercise: Complete the entry with INHIBITION for COc1ccc(C(=O)N2CCCC3(CCCC(=O)N3C)C2)cc1 (configuration not stated)
Solution: 24.8
